Target: T1, human LAG-3 on cells (HEK293-hLAG-3 stable cell line) (human, UniProt P18627 23-525)
T1 sequence: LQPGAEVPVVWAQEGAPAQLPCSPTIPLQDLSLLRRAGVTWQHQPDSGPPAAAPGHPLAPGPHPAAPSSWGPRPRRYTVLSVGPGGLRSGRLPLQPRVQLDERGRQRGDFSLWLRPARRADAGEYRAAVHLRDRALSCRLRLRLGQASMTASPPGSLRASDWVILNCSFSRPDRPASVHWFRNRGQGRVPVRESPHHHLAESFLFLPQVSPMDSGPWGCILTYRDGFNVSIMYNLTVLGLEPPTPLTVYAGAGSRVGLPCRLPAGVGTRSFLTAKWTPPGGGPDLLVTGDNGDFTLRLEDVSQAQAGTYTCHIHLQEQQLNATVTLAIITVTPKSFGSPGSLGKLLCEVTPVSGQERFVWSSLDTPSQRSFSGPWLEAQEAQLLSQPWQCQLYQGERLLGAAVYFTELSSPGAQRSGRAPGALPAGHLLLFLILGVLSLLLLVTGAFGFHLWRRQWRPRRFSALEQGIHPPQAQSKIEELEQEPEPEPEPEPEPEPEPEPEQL
Assay: FACS, HEK293-hLAG-3, antibody 0.32 nM
observed_property: Mean fluorescence intensity
Kindly provide the number alone.

Return reported Mean fluorescence intensity. Input binder: 556F6B8-5 humanized antibody (antibody, V domains shown) VH: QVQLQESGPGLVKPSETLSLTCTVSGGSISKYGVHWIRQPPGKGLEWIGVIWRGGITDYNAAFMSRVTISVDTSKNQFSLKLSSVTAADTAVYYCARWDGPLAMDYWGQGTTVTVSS VL: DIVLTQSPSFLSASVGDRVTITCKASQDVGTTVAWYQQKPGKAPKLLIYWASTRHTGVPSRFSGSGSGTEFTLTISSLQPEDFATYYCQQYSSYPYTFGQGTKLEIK
5

Return the recorded Mean fluorescence intensity value; entry: 556F6B8-10 humanized antibody (antibody, V domains shown) VH: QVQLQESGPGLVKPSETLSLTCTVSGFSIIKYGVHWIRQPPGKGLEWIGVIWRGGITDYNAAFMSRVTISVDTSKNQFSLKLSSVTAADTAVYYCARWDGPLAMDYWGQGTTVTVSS VL: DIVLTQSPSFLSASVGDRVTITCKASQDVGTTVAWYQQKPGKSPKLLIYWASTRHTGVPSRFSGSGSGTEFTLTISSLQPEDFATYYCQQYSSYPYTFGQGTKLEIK
11
